Entries annotated with measured viability
test: in vitro; details: human, % Viability of SARS-2-Spike pv
Structures can show the parent of a compound that is named as a salt. *1 amine or outer side, *2 acyl side, *3 side chain or, on linkers, in order; H or OH if unused. Where a SMILES comes first, the peptide text is derived from it. Bridges are numbered along the chain shown (N, C = ends). [ ]: non-standard residue; d: D form. The star is where a group is joined. pTerphenylCO(4''-OnC5H11) = CCCCCOc1ccc(-c2ccc(-c3ccc(C(=O)*)cc3)cc2)cc1; Orn(4R-OH,5R-OH) = O=C([C@H](C[C@@H](O)[C@@H](O)N[*:3])N[*:1])[*:2]; hTyr(3S-OH,4S-OH) = N[C@H](C(=O)O)[C@H](O)[C@@H](O)c1ccc(O)cc1; Pro(3S-OH,4S-Me) = C[C@H]1CN[C@H](C(=O)O)[C@H]1O; Hyp = O=C(O)[C@@H]1C[C@@H](O)CN1
Numbers only; they are read as %.

Here are 4 molecules together with their reported answers.
Measured viability, CCCCCOc1ccc(-c2ccc(-c3ccc(C(=O)N[C@H]4C[C@@H](O)[C@@H](O)NC(=O)[C@@H]5[C@@H](O)[C@@H](C)CN5C(=O)[C@H]([C@@H](C)O)NC(=O)[C@H]([C@H](O)[C@@H](O)c5ccc(O)cc5)NC(=O)[C@@H]5C[C@@H](O)CN5C(=O)[C@H]([C@@H](C)O)NC4=O)cc3)cc2)cc1 [anidulafungin] ({pTerphenylCO(4''-OnC5H11)}-[Orn(4R-OH,5R-OH)]T[Hyp][hTyr(3S-OH,4S-OH)]T[Pro(3S-OH,4S-Me)]; lactam 1-C) : 109

The recorded viability for CN1[C@@H]2CC[C@H]1C[C@@H](OC(c1ccccc1)c1ccccc1)C2 [benztropine mesylate] is 96

Given item CN1CCC(=C2c3ccccc3C=Cc3ccccc32)CC1 [cyproheptadine HCl] , the value recorded as its viability is 94

// field: viability; key: `Clc1ccc2c(c1)CCc1cccnc1C2=C1CCNCC1` ; value = 99

More entries:
Reported viability for `CN1CCN(CCCN2c3ccccc3Sc3ccc(Cl)cc32)CC1` was 94

Per the record, `CN(C)CCCN1c2ccccc2CCc2ccccc21` has viability of 99

====

system: 293T-ACE2 cells; details: human
Structures can show the parent of a compound that is named as a salt.
The following compounds are listed with their measured % Viability of SARS-2-Spike pv values.
Numeric answer only, unit % assumed.

Worked cases, answers included:
Input Cc1ccc(NC(=O)c2ccc(CN3CCN(C)CC3)cc2)cc1Nc1nccc(-c2cccnc2)n1 [imatinib] . Output % Viability of SARS-2-Spike pv: 103

Data point: Cc1ccc(NC(=O)c2ccc(CN3CCN(C)CC3)cc2)cc1Nc1nccc(-c2cccnc2)n1 [imatinib mesylate, imatinib] ; % Viability of SARS-2-Spike pv = 22

Further cases:
Field % Viability of SARS-2-Spike pv (entry CC[C@H]1OC(=O)[C@H](C)[C@@H](O[C@H]2C[C@@](C)(OC)[C@@H](O)[C@H](C)O2)[C@H](C)[C@@H](O[C@@H]2O[C@H](C)C[C@H](N(C)C)[C@H]2O)[C@](C)(O)C[C@@H](C)CN(C)[C@H](C)[C@@H](O)[C@]1(C)O [azithromycin] ) reads 100

// sample CCOC(=O)C1=C(COCCN)NC(C)=C(C(=O)OC)C1c1ccccc1Cl (stereo not shown) [amlodipine besylate] , its % Viability of SARS-2-Spike pv was 116

====

system: VSV-G pseudovirus; test: microbe, parasite or virus in culture; type: cell-based, vesicular stomatitis virus; conditions: Pseudovirus, 293T/ACE2, read-out: % Infectivity of VSV-G pv
Counter-ions that a name gives are not always drawn.
Consider the cut-off 90%. If the recorded activity at 10 µM is strictly smaller, the label is rule met; if not, the label is rule not met.

Q) I wonder whether `CN(C)CC/C=C1/c2ccccc2Sc2ccc(Cl)cc21` has activity at 10 µM below 90%. Can you tell?
A) rule met

Note: attention shifts to another entry.
Q) I'd appreciate it if you could check whether CN1CCC(OC(c2ccccc2)c2ccccc2)CC1 [diphenylpyraline HCl] has activity at 10 µM smaller than 90%.
A) rule not met

====

This section presents molecules with their documented activity at 10 µM values.
system: VSV-G pseudovirus; experiment: microbe, parasite or virus in culture; format: cell-based, vesicular stomatitis virus; details: Pseudovirus, 293T/ACE2, read-out: % Infectivity of VSV-G pv
Where a name gives a salt, the structure may show the parent alone.
Entry format: amount then unit.

# count of solved cases: 5
So, CN1CCN(CCCN2c3ccccc3Sc3ccc(C(F)(F)F)cc32)CC1 [trifluoperazine 2HCl] ? Its activity at 10 µM was 80%

Entry under test: `Clc1ccc2c(c1)C(N1CCNCC1)=Nc1ccccc1O2` . Its activity at 10 µM was 95%

Per the records, this molecule ( CN(C)CCCN1c2ccccc2Sc2ccc(Cl)cc21 [chlorpromazine HCl] ) has activity at 10 µM equal to 58%

Recorded result, `CN1CCN(CCCN2c3ccccc3Sc3ccc(Cl)cc32)CC1` , activity at 10 µM: 80%

Noted for `CN1CCN(c2nc(C3=C(c4c[nH]c5ccccc45)C(=O)NC3=O)c3ccccc3n2)CC1` : its activity at 10 µM reads 76%

More entries:
The molecule `COc1ccc2cc1Oc1ccc(cc1)C[C@H]1c3cc(c(OC)cc3CCN1C)Oc1c(OC)c(OC)cc3c1[C@H](C2)N(C)CC3` showed activity at 10 µM equal to 39%

Entry CN[C@H]1CC[C@@H](c2ccc(Cl)c(Cl)c2)c2ccccc21 [sertraline HCl] , activity at 10 µM reported as 71%

For `Clc1ccc2c(c1)CCc1cccnc1C2=C1CCNCC1` the molecule record lists activity at 10 µM as 82%

In plain terms, CC(CN(C)C)CN1c2ccccc2CCc2ccccc21 (centres unmarked) [trimipramine maleate] has a documented activity at 10 µM of 95%

Sample `Cc1cc(Nc2cc(CN3CCOCC3)c3nc(C)c(Cc4ccc(Cl)cc4F)n3n2)n[nH]1` ; activity at 10 µM observed: 1%

activity at 10 µM reported for this molecule CN1CCCC(n2nc(Cc3ccc(Cl)cc3)c3ccccc3c2=O)CC1 (centres unmarked) [azelastine HCl] : 81%

In plain terms, `C=C1C(=O)[C@]23[C@H](O)[C@H]1CC[C@H]2[C@@]12CO[C@]3(O)[C@@H](O)[C@@H]1C(C)(C)CC[C@@H]2O` has a documented activity at 10 µM of 37%

The value of activity at 10 µM measured for the molecule `COc1ccc2cc1Oc1ccc(cc1)C[C@H]1c3c(cc4c(c3Oc3cc5c(cc3OC)CCN(C)[C@@H]5C2)OCO4)CCN1C` turned out to be 1%

Briefly, activity at 10 µM measured for `CCOC(=O)c1c(CSc2ccccc2)n(C)c2cc(Br)c(O)c(CN(C)C)c12` : 62%

What the record says about `CCc1cnn2c(NCc3ccc[n+]([O-])c3)cc(N3CCCC[C@H]3CCO)nc12` : activity at 10 µM is 1%

The molecule identified as CC/C(=C(\c1ccccc1)c1ccc(OCCN(C)C)cc1)c1ccccc1 [tamoxifen citrate] registered its activity at 10 µM at 81%

So for CCN(CC)CCCC(C)Nc1ccnc2cc(Cl)ccc12 (centres unmarked) [chloroquine diphosphate] , the logged activity at 10 µM turned out to be 83%

====

experiment: in vitro; details: human
Counter-ions that a name gives are not always drawn.
measured-endpoint: viability at 10 µM (%)
Report the value in % with no unit label.

Use these answered entries as a reference point.
GET /value?item= CCc1cccc2c3c([nH]c12)C(CC)(CC(=O)O)OCC3 (stereo not shown) [Etodolac] &field=viability at 10 µM returns 100

Entry CC(=O)O[C@H]1Cc2ccccc2N(C(N)=O)c2ccccc21 [Eslicarbazepine acetate] — recorded viability at 10 µM = 102

Form: compound = COc1c2ccoc2cc2oc(=O)ccc12 [5-methoxypsoralen] ; viability at 10 µM = 111

viability at 10 µM measured on O=C1c2c(O)cccc2C([C@@H]2O[C@H](CO)[C@@H](O)[C@H](O)[C@H]2O)c2cc(CO)cc(O)c21 (stereo partly shown) [Aloin] = 103

Query COc1c2occc2cc2ccc(=O)oc12 [8-methoxypsoralen] yields viability at 10 µM of 105

get_value(item= CN1CCC(=C2c3ccccc3CCn3c(C=O)cnc32)CC1 [Alcaftadine] , readout=viability at 10 µM) returns 97

Continuing:
// viability at 10 µM lookup, compound = Cc1cc2c(s1)Nc1ccccc1N=C2N1CCN(C)CC1 [Olanzapine] , result: 106

Lab note: measured viability at 10 µM of CN1CCN2c3ccccc3Cc3ccccc3C2C1 (stereo not shown) [mianserin Hcl] was 100

Per the records, this compound ( NC(=O)N1c2ccccc2CC(=O)c2ccccc21 [Oxcarbazepine] ) has viability at 10 µM equal to 109

Note to self: viability at 10 µM recorded for C=C1CC[C@H]2C(=C)CC[C@H]3C(=C)C(=O)O[C@@H]3[C@@H]12 [Dehydrocostus Lactone] was 90
